TARGET_SYSTEM: Peroxisome proliferator-activated receptor gamma (Homo sapiens)
Sequence (P37231 whole entry): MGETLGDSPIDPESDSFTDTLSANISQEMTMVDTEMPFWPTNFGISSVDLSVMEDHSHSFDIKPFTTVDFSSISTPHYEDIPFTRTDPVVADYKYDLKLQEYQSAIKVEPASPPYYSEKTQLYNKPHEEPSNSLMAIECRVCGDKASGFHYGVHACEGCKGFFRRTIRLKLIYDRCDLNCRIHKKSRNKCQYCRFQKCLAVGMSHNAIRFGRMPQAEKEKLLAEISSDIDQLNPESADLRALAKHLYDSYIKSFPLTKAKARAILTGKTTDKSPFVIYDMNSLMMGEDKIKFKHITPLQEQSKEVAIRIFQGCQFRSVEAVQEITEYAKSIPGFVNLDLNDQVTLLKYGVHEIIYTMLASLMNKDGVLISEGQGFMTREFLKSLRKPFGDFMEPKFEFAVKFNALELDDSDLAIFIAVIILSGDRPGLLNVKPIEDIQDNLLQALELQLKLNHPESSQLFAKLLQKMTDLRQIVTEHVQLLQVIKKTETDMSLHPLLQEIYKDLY
PROTOCOL_TEXT: In vitro binding affinity for human peroxisome proliferator activated receptor gamma using scintillation proximity assay (SPA)
pIC50: −log10 of the molar value.
Examples of compounds with documented pIC50 follow.
OBSERVATION_TYPE: pIC50

>>> df
                                   compound  assay_value
0  CCC1(C(=O)O)CCc2ccc(OCCCOc3ccc(Oc4ccccc4)cc3F)cc2O1 (stereo not given)         5.33
1  CCCc1cc(Oc2ccccc2)ccc1OCCCOc1ccc2c(c1)OC(C(=O)O)CC2 (stereo not given)         6.01
2  CCCc1cc(Oc2ccccc2)ccc1OCCCOc1ccc2c(c1)OC(CCC)(C(=O)O)CC2 (stereo not given)         6.43
3  CCCc1cc(Oc2ccccc2)ccc1OCCCOc1ccc2c(c1)CCC(C(=O)O)O2 (stereo not given)         5.54
4  CCCc1cc(Oc2ccc(Cl)cc2)ccc1OCCCOc1ccc2c(c1)OC(CC)(C(=O)O)CC2 (stereo not given)         5.85

----------
TARGET_SYSTEM: Peroxisome proliferator-activated receptor gamma (Homo sapiens, UniProt P37231)
Sequence (P37231 whole entry): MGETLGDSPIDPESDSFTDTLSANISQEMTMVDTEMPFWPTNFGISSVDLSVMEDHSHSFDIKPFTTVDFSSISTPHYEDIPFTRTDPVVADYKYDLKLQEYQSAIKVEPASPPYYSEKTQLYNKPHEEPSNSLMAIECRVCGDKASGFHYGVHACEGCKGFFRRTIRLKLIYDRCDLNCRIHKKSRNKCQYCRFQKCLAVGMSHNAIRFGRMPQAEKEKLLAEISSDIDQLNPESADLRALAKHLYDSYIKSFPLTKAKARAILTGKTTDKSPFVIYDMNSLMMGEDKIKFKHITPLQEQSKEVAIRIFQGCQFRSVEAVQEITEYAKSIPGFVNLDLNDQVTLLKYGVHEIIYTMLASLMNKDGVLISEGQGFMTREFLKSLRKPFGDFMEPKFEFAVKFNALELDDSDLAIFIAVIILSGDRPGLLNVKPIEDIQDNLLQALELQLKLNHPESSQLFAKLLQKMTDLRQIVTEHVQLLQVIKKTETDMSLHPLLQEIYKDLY
PROTOCOL_TEXT: In vitro binding affinity for human peroxisome proliferator activated receptor gamma using scintillation proximity assay (SPA)
pIC50: −log10 of the molar value.
Examples of compounds with documented pIC50 follow.
OBSERVATION_TYPE: pIC50

>>> print(df.to_string())
                                   compound  comparative_sign  assay_value
0  CCCc1cc(Oc2ccccc2)ccc1OCCCCOc1ccc2c(c1)OC(C)(C(=O)O)CC2 (centres undefined)                 =         5.29
1  CCC1(C(=O)O)CCc2ccc(OCCCOc3ccc(Oc4ccccc4)cc3)cc2O1 (centres undefined)                 <         4.82
2  CCCc1cc(Oc2ccccc2)ccc1OCCCCOc1ccc2c(c1)OC(C(=O)O)CC2 (centres undefined)                 =         5.74
3  CCCc1cc(Oc2ccc(OC)cc2)ccc1OCCCOc1ccc2c(c1)OC(CC)(C(=O)O)CC2 (centres undefined)                 =         6.20
4  CCCc1cc(Oc2ccccc2)ccc1OCCCOc1ccc2c(c1)CCC(C)(C(=O)O)O2 (centres undefined)                 =         5.77
5  CCCc1cc(Oc2ccccc2)ccc1OCCCOc1ccc2c(c1)OC(CC(C)C)(C(=O)O)CC2 (centres undefined)                 =         5.92
6  CCCc1cc(Oc2ccccc2)ccc1OCCCOc1ccc2c(c1)OC(CC)(C(=O)O)CC2 (centres undefined)                 =         6.36
7  CCCc1cc(Oc2ccccc2)ccc1OCCCCOc1ccc2c(c1)CCC(C(=O)O)O2 (centres undefined)                 =         5.52
8  CCCc1cc(Oc2ccccc2)ccc1OCCCOc1ccc2c(c1)OC(C)(C(=O)O)CC2 (centres undefined)                 =         6.12

----------
PROTOCOL_TEXT: Longer half-life in monkey (i.v.) at 0.5 mpk
Format: ADME, organism-based
TEST_CONDITIONS: cercopithecidae, in vivo, iv, 0.5 mg/kg
OBSERVATION_TYPE: half-life (h)

                                        mol  assay_value
0  CC[C@]1(C(=O)O)CCc2ccc(OCCCOc3ccc(Oc4ccc(F)cc4)cc3Cl)cc2O1          3.5

----------
PROTOCOL_TEXT: Longer half-life in rat (i.v.) at 0.5 mpk
Format: ADME, organism-based
TEST_CONDITIONS: in vivo, iv, 0.5 mg/kg
OBSERVATION_TYPE: half-life (h)

>>> print(df.to_string())
                                        mol  assay_value
0  CC[C@]1(C(=O)O)CCc2ccc(OCCCOc3ccc(Oc4ccc(F)cc4)cc3Cl)cc2O1          4.6

----------
Values of IC50 reported for Peroxisome proliferator-activated receptor alpha (Homo sapiens, UniProt Q07869) appear below.
OBSERVATION_TYPE: IC50 (nM)

                                   compound  assay_value
0  CCCc1cc(Oc2ccccc2)ccc1OCCCOc1ccc2c(c1)CCC(C)(C(=O)O)O2 (stereo not given)         3300
1  CCCc1cc(Oc2ccc(F)cc2)ccc1OCCCOc1ccc2c(c1)OC(CC)(C(=O)O)CC2 (stereo not given)          970
2  CCCc1cc(Oc2ccccc2)ccc1OCCCOc1ccc2c(c1)OC(CCC)(C(=O)O)CC2 (stereo not given)         2100
3  CCC1(C(=O)O)CCc2ccc(OCCCOc3ccc(Oc4ccccc4)cc3)cc2O1 (stereo not given)         1700
4  CCC1(C(=O)O)CCc2ccc(OCCCOc3ccc(Oc4ccccc4)cc3F)cc2O1 (stereo not given)          370
5  CCC1(C(=O)O)CCc2ccc(OCCCOc3ccc(Oc4ccccc4)cc3Cl)cc2O1 (stereo not given)          120
6  CCCc1cc(Oc2ccccc2)ccc1OCCCCOc1ccc2c(c1)CCC(C)(C(=O)O)O2 (stereo not given)         2000
7  CC1(C(=O)O)CCc2ccc(OCCCOc3ccc(Oc4ccccc4)cc3Cl)cc2O1 (stereo not given)          120
8  CCCc1cc(Oc2ccccc2)ccc1OCCCOc1ccc2c(c1)OC(CC)(C(=O)O)CC2 (stereo not given)          360
9  CCCc1cc(Oc2ccccc2)ccc1OCCCCOc1ccc2c(c1)CCC(C(=O)O)O2 (stereo not given)         5800

----------
PROTOCOL_TEXT: Bioavailability in monkey (p.o.) at 2.0 mpk
Assay type: ADME, organism-based
TEST_CONDITIONS: cercopithecidae, in vivo, po, 2 mg/kg
OBSERVATION_TYPE: bioavailability

                                        mol  assay_value
0  CC[C@]1(C(=O)O)CCc2ccc(OCCCOc3ccc(Oc4ccc(F)cc4)cc3Cl)cc2O1          43%

----------
TARGET_SYSTEM: Peroxisome proliferator-activated receptor alpha (Homo sapiens, UniProt Q07869)
Sequence (Q07869 whole entry, the tested form may be a part): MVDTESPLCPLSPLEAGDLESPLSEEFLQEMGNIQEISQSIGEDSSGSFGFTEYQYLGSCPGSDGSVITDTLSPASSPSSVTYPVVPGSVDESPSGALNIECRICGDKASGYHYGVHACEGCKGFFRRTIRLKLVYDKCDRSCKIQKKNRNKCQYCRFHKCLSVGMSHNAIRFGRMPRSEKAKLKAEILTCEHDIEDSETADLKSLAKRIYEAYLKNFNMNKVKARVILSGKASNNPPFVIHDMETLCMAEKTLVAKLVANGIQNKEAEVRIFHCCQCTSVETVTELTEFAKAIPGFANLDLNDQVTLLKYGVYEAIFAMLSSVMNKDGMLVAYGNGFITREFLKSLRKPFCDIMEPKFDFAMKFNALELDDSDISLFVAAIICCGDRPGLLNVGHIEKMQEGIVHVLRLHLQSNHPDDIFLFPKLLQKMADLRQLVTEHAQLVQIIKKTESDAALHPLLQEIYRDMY
PROTOCOL_TEXT: In vitro potency of PPAR gene activation against human Peroxisome proliferator activated receptor alpha using chimeric Gal4-hPPAR transactivation assay (TA)
OBSERVATION_TYPE: EC50

In [3]: df
Out[3]:
                                    compound  assay_value
 0  CCCc1cc(Oc2ccccc2)ccc1OCCCOc1ccc2c(c1)OC(CCC)(C(=O)O)CC2 (stereo not drawn)      0.12 µM
 1  CCCc1cc(Oc2ccccc2)ccc1OCCCOc1ccc2c(c1)OC(CC)(C(=O)O)CC2 (stereo not drawn)      0.03 µM
 2  CCC1(C(=O)O)CCc2ccc(OCCCOc3ccc(Oc4ccccc4)cc3)cc2O1 (stereo not drawn)      0.22 µM
 3  CCCc1cc(Oc2ccccc2)ccc1OCCCOc1ccc2c(c1)OC(C(=O)O)CC2 (stereo not drawn)         3 µM
 4  CC1(C(=O)O)CCc2ccc(OCCCOc3ccc(Oc4ccccc4)cc3Cl)cc2O1 (stereo not drawn)      0.08 µM
 5  CCCc1cc(Oc2ccc(F)cc2)ccc1OCCCOc1ccc2c(c1)OC(CC)(C(=O)O)CC2 (stereo not drawn)      0.01 µM
 6  CCCc1cc(Oc2ccc(OC)cc2)ccc1OCCCOc1ccc2c(c1)OC(CC)(C(=O)O)CC2 (stereo not drawn)       4.6 µM
 7  CCCc1cc(Oc2ccccc2)ccc1OCCCCOc1ccc2c(c1)OC(C)(C(=O)O)CC2 (stereo not drawn)       5.2 µM
 8  CCCc1cc(Oc2ccccc2)ccc1OCCCOc1ccc2c(c1)OC(C)(C(=O)O)CC2 (stereo not drawn)       0.1 µM
 9  CCCc1cc(Oc2ccccc2)ccc1OCCCCOc1ccc2c(c1)OC(C(=O)O)CC2 (stereo not drawn)       6.3 µM
10  CCC1(C(=O)O)CCc2ccc(OCCCOc3ccc(Oc4ccccc4)cc3F)cc2O1 (stereo not drawn)      0.05 µM
11  CCCc1cc(Oc2ccc(Cl)cc2)ccc1OCCCOc1ccc2c(c1)OC(CC)(C(=O)O)CC2 (stereo not drawn)      0.21 µM
12  CCC1(C(=O)O)CCc2ccc(OCCCOc3ccc(Oc4ccccc4)cc3Cl)cc2O1 (stereo not drawn)      0.03 µM
